Test system: Salmonella enterica typhimurium
Test: growth AUC normalised to DMSO control (fraction of control); higher = less growth inhibition, active = hit call of the paper
Details: 20 µM
Counter-ions that a name gives are not always drawn.
Pick from 1 = active, 0 = inactive when you respond.

[[record]]
compound = "CCN(CC)CCNC(=O)c1ccc(N)cc1 [Procainamide hydrochloride]"
targetundertest = "Salmonella enterica typhimurium"
cat = 0

[[record]]
compound = "OCC(O)CN1CCN(c2ccccc2)CC1 (centres undefined)"
targetundertest = "Salmonella enterica typhimurium"
cat = 0

[[record]]
compound = "CCOC(=O)[C@H](CCc1ccccc1)N[C@@H](C)C(=O)N1[C@H](C(=O)O)C[C@@H]2CCC[C@@H]21"
targetundertest = "Salmonella enterica typhimurium"
cat = 0


Next up:
QUERY: Any idea what this test logged for CC(=O)OCC1=C(C(=O)O)N2C(=O)[C@@H](NC(=O)Cc3cccs3)[C@H]2SC1 [Cephalothin sodium salt] ?
RESULT: 1

====

Consider the following compounds; for each one, report its growth AUC normalised to DMSO control.
Tested on: P. vulgatus WT
Experiment: growth AUC normalised to DMSO control (median) (fraction of control); higher = less growth inhibition, active = hit call of the paper
Conditions: 20 µM
Where a name gives a salt, the structure may show the parent alone.
Answers are plain numbers.

Examples from the recorded data:
[[record]]
compound = "O=C(O)C1CSCN1 (stereo not given) [Timonacic]"
endpointlabel = "growth AUC normalised to DMSO control"
reportedresult = 0.999

[[record]]
compound = "CN(C)CCCC1(c2ccc(F)cc2)OCc2cc(C#N)ccc21 (stereo not given) [Citalopram hydrobromide]"
endpointlabel = "growth AUC normalised to DMSO control"
reportedresult = 0.982

[[record]]
compound = "CCN(CC)CCNC(=O)COc1ccc(OC)cc1 [Mefexamide hydrochloride]"
endpointlabel = "growth AUC normalised to DMSO control"
reportedresult = 0.97

[[record]]
compound = "CC(CN(C)C)CN1c2ccccc2Sc2ccccc21 (stereo not given) [Trimeprazine tartrate]"
endpointlabel = "growth AUC normalised to DMSO control"
reportedresult = 0.792


Read the next record carefully.
QUERY: Look at this compound and give its reported growth AUC normalised to DMSO control. CN1CC(O)c2cc(N=NC(N)=O)c(O)cc21 (stereo not given) [Carbazochrome]
RESULT: 1.01

====

Test system: P. vulgatus RND KO
Test: growth AUC normalised to DMSO control (median) (fraction of control); higher = less growth inhibition, active = hit call of the paper
Conditions: 20 µM
Where a name gives a salt, the structure may show the parent alone.
Consider the following compounds; for each one, report its growth AUC normalised to DMSO control.
One number for each entry.

Examples from the recorded data:
[[record]]
compound = "O=C(NC1CCN(CCCCC2(C(=O)NCC(F)(F)F)c3ccccc3-c3ccccc32)CC1)c1ccccc1-c1ccc(C(F)(F)F)cc1 [Lomitapide]"
endpointlabel = "growth AUC normalised to DMSO control"
reportedresult = 1.01

[[record]]
compound = "CCCc1cc(C(N)=S)ccn1 [Prothionamide]"
endpointlabel = "growth AUC normalised to DMSO control"
reportedresult = 0.988

[[record]]
compound = "O=C(O)/C=C/c1ccc(Cn2ccnc2)cc1 [Ozagrel hydrochloride]"
endpointlabel = "growth AUC normalised to DMSO control"
reportedresult = 1.02


For each entry beneath this line, provide reported growth AUC normalised to DMSO control.
1. OCCN1CCN(CC/C=C2/c3ccccc3Sc3ccc(C(F)(F)F)cc32)CC1 [Flupentixol dihydrochloride cis-(Z)]
2. N[C@@H](CCC(=O)N[C@@H](CS)C(=O)NCC(=O)O)C(=O)O [Glutathione]
3. CC(=O)OCC1=C(C(=O)O)N2C(=O)[C@@H](NC(=O)Cc3cccs3)[C@H]2SC1 [Cephalothin sodium salt]

RESULT:
[0.946, 0.996, 0.00752]

For each entry beneath this line, provide reported growth AUC normalised to DMSO control.
1. CO[C@@]1(NC(=O)C2SC(=C(C(N)=O)C(=O)O)S2)C(=O)N2C(C(=O)O)=C(CSc3nnnn3C)CS[C@@H]21 (some centres not stated) [Cefotetan]
2. CN1CCN(CCCN2c3ccccc3Sc3ccc(S(=O)(=O)N(C)C)cc32)CC1 [Thioproperazine dimesylate]
3. C[C@H]1[C@H](OC(=O)CCC(=O)O)O[C@@H]2O[C@@]3(C)CC[C@H]4[C@H](C)CC[C@@H]1[C@@]24OO3 [Artesunate]
4. CC(C)COC(=O)OCN1C(=O)CN(CCN2CC(=O)N(COC(=O)OCC(C)C)C(=O)C2)CC1=O [Sobuzoxane]
5. CC[C@H](C)C(=O)O[C@H]1C[C@@H](C)C=C2C=C[C@H](C)[C@H](CC[C@@H]3C[C@@H](O)CC(=O)O3)[C@H]21 [Lovastatin]
6. CC(CN1c2ccccc2Sc2ccccc21)N(C)C (configuration not stated) [Promethazine hydrochloride]

RESULT:
1. 0.0118
2. 1.03
3. 1.01
4. 1.04
5. 0.958
6. 0.718

====

System: P. vulgatus WT
Experiment: growth AUC normalised to DMSO control (median) (fraction of control); higher = less growth inhibition, active = hit call of the paper
Settings: 20 µM
Where a name gives a salt, the structure may show the parent alone.
endpointLabel: growth AUC normalised to DMSO control
Answers are plain numbers.

Examples from the recorded data:
[[record]]
compound = "CCC[C@H](N[C@@H](C)C(=O)N1[C@H](C(=O)O)C[C@@H]2CCCC[C@@H]21)C(=O)OCC"
reportedresult = 1.04

[[record]]
compound = "CC1(C)O[C@@H]2C[C@H]3[C@@H]4CCC5=CC(=O)C=C[C@]5(C)[C@H]4[C@@H](O)C[C@]3(C)[C@]2(C(=O)CO)O1 [Desonide]"
reportedresult = 0.993

[[record]]
compound = "Cc1onc(-c2ccccc2)c1-c1ccc(S(N)(=O)=O)cc1"
reportedresult = 0.993

[[record]]
compound = "OCCOCCN1CCN(C(c2ccccc2)c2ccc(Cl)cc2)CC1 (stereo unspecified) [Hydroxyzine dihydrochloride]"
reportedresult = 1

[[record]]
compound = "CN(C(=O)CN(CCO)CC(=O)N(C)C(C)(C)Cc1ccccc1)C(C)(C)Cc1ccccc1"
reportedresult = 0.646


For each entry beneath this line, provide reported growth AUC normalised to DMSO control.
1. CO/N=C(\C(=O)N[C@@H]1C(=O)N2C(C(=O)O)=C(C[N+]3(C)CCCC3)CS[C@H]12)c1csc(N)n1 [Cefepime hydrochloride]
2. CCCC1O[C@@H]2C[C@H]3[C@@H]4CCC5=CC(=O)C=C[C@]5(C)[C@H]4[C@@H](O)C[C@]3(C)[C@]2(C(=O)CO)O1 (stereo partly specified) [Budesonide]
3. CC(C)Nc1cccnc1N1CCN(C(=O)c2cc3cc(NS(C)(=O)=O)ccc3[nH]2)CC1
4. CC1(C)S[C@@H]2[C@H](NC(=O)C(c3ccccc3)S(=O)(=O)O)C(=O)N2[C@H]1C(=O)O (stereo partly specified) [Sulbenicillin sodium salt]

RESULT:
0.0103
0.999
1.07
0.00538

For each entry beneath this line, provide reported growth AUC normalised to DMSO control.
1. CN1CCC(=C2c3ccccc3C=Cc3ccccc32)CC1 [Cyproheptadine hydrochloride]
2. CC(C)COCC(CN(Cc1ccccc1)c1ccccc1)N1CCCC1 (stereo unspecified) [Bepridil hydrochloride]
3. CC(=O)O[C@H]1C[C@@H]2CC[C@@H]3[C@H](CC[C@@]4(C)[C@H]3C[C@H]([N+]3(C)CCCCC3)[C@@H]4OC(C)=O)[C@@]2(C)C[C@@H]1N1CCCCC1 [Vecuronium bromide]
4. N/C(=N\C(=O)c1nc(Cl)c(N)nc1N)NCc1ccccc1 [Benzamil hydrochloride]
5. O=C1OC(CN2CCOCC2)CN1/N=C/c1ccc([N+](=O)[O-])o1 (stereo unspecified) [Furaltadone hydrochloride]
6. CCCCC(CC)CN1CN(CC(CC)CCCC)CC(C)(N)C1 (stereo unspecified)
7. CCCN(CCC)S(=O)(=O)c1ccc(C(=O)O)cc1
8. C=CCc1ccccc1OCC(O)CNC(C)C (stereo unspecified) [Alprenolol hydrochloride]

RESULT:
1: 0.976; 2: 0.982; 3: 0.998; 4: 0.991; 5: 0.0192; 6: 1.03; 7: 1.02; 8: 1.08

For each entry beneath this line, provide reported growth AUC normalised to DMSO control.
1. CC1(C)NC(=O)N(c2ccc([N+](=O)[O-])c(C(F)(F)F)c2)C1=O [Nilutamide]
2. COc1cc(N)cn[n+]1-c1ccccc1 [Amezinium metilsulfate]
3. COC(=O)C1=C(C)NC(C)=C(C(=O)OC(C)C)C1c1cccc2nonc12 (stereo unspecified)
4. CCN(CC)CCOC(=O)C1(c2ccc([N+](=O)[O-])cc2)CCCC1 [Nitrocaramiphen hydrochloride]
5. Nc1ccc(S(=O)(=O)Nc2ncccn2)cc1
6. COc1cc2c(cc1OC)CC(=O)N(CCCN(C)C[C@H]1Cc3cc(OC)c(OC)cc31)CC2 [Ivabradine hydrochloride]

RESULT:
1. 0.952
2. 1
3. 1.05
4. 1.05
5. 0.995
6. 0.997

For each entry beneath this line, provide reported growth AUC normalised to DMSO control.
1. CN(C)CCn1nnnc1SCC1=C(C(=O)O)N2C(=O)[C@@H](NC(=O)Cc3csc(N)n3)[C@H]2SC1 [Cefotiam hydrochloride]
2. CCCC(=O)Nc1ncnc2c1ncn2[C@@H]1O[C@@H]2COP(=O)(O)O[C@H]2[C@H]1OC(=O)CCC [Bucladesine sodium salt]
3. CC(C)OC(=O)C(C(=O)OC(C)C)=C1SC=CS1 [Malotilate]
4. CCCNC(C)(C)COC(=O)c1ccccc1 [Meprylcaine hydrochloride]
5. CN1CCCC(n2nc(Cc3ccc(Cl)cc3)c3ccccc3c2=O)CC1 (stereo unspecified) [Azelastine hydrochloride]

RESULT:
[0.00849, 1.01, 0.977, 1.01, 1]
